system: Stellaria media (STEME); assay: Herbicidal post-emergence action, 320 g/ha, STEME; format: in vivo; details: visual grading after ca. 3 weeks
recorded.metric: herbicidal effect STEME (%)
One number for each entry, in %.

Please give herbicidal effect STEME, item by item, for the list that follows.
1. Cc1nn(C)c(=O)c(Oc2ccccc2C(C)C)c1O
2. CCOC(=O)Oc1c(C)nn(C)c(=O)c1Oc1c(F)cccc1C1CC1
3. CCOC(=O)Oc1c(C)nn(C)c(=O)c1Oc1cc(F)ccc1C1CC1
4. Cc1nn(C)c(=O)c(Oc2ccc(Cl)cc2Cl)c1OC(=O)C1CCC1
5. Cc1nn(C)c(=O)c(Oc2cc(Cl)ccc2Cl)c1OC(=O)C(C)C
6. Cc1nn(C)c(=O)c(Oc2cc(Cl)cc(Cl)c2)c1O
7. Cc1nn(C)c(=O)c(Oc2ccccc2OC(F)F)c1O
8. CCOC(=O)Oc1c(C)nn(C)c(=O)c1Oc1cc(Cl)ccc1C1CC1

Return:
1. 90
2. 100
3. 90
4. 90
5. 90
6. 90
7. 90
8. 90

Enquiry: GET /values?readout=herbicidal effect STEME&system=Stellaria media (STEME)&item= `CCOC(=O)Oc1c(C)nn(C)c(=O)c1Oc1ccccc1C1CC1`
Return: 100
